Assay: Thermostability, ProteoStat Thermal Shift Stability Kit, temperature of aggregation
Type: physicochemical
Conditions: pH 5.6; NS = protein not soluble
Collected Tagg pH 5.6 values appear next to each entry.
Just the number, please, no unit attached.

Examples with answers:
[
  {
    "molecule": "SEQID-00502: protein of the 168 nutritive polypeptide library (protein, Glycine max, protein of the 168 nutritive polypeptide library) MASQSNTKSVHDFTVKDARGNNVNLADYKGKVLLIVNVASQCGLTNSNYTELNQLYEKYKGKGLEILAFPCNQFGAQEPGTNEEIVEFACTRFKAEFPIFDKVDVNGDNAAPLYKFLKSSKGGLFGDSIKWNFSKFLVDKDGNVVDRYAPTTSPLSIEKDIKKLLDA",
    "Tagg pH 5.6": 77
  },
  {
    "molecule": "SEQID-00622: protein of the 168 nutritive polypeptide library (protein, listed as Oryza sativa, subsp. japonica, protein of the 168 nutritive polypeptide library) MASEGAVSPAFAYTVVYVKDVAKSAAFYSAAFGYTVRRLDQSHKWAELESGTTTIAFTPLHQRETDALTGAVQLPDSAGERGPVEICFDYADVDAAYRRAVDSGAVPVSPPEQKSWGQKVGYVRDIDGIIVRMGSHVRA",
    "Tagg pH 5.6": 45.5
  },
  {
    "molecule": "SEQID-00100: nutritive polypeptide (protein, listed as Lactobacillus acidophilus) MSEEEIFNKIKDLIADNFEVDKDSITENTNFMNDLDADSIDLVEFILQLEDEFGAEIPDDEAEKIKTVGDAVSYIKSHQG",
    "Tagg pH 5.6": 95
  }
]

Shift focus to the following entry.
Tagg pH 5.6 for SEQID-00485: nutritive polypeptide naturally produced in Chickpea, recombinantly expressed in E. coli (protein, listed as Cicer arietinum) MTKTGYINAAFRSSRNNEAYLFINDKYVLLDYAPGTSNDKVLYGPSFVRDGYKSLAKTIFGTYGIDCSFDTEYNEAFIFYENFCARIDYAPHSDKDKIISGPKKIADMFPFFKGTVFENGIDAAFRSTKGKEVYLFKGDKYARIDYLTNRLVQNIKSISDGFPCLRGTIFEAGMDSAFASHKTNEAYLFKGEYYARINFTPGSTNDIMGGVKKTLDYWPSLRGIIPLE is 34.5
